Target: T1, full-length beta-catenin (UniProt P35222 2-781, limits assumed)
T1 construct: mature; also called full-length ß-Catenin; β-catenin
T1 sequence (looked up): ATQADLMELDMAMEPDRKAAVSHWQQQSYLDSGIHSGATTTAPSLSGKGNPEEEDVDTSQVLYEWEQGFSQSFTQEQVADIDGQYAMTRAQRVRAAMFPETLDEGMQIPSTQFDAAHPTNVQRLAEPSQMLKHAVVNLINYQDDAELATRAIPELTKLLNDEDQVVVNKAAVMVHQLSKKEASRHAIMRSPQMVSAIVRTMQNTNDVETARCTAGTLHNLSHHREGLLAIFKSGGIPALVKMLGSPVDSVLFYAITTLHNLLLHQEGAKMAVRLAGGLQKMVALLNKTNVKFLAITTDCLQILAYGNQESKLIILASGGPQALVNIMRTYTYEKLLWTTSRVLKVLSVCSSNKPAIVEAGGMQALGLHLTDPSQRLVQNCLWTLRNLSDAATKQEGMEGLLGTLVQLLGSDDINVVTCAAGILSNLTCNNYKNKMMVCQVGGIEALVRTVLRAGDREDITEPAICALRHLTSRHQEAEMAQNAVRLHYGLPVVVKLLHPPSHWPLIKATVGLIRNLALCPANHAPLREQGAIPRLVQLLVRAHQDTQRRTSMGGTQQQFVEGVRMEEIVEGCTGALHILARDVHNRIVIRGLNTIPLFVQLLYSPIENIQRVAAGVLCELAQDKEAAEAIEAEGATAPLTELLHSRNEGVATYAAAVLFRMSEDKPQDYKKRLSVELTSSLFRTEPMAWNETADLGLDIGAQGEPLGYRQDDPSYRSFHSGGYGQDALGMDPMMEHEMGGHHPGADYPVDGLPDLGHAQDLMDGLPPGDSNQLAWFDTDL
Experiment: competition FP, grade of FP EC50 (+: 500-5000 nM)
Numbered stars: 1 amine (or outer) side, 2 acyl side, 3 side chain; on linkers, the order of the positions; unused ones are H or OH. Bridge positions count the residues as written; N and C are the ends. Square brackets hold non-standard residues; d marks the D form. Primed or numbered codes have the meaning given here. MB(4) = Monomer B (PyrS), N-Alloc pyrrolidine stapling residue, (S)-3-amino-1-(allyloxycarbonyl)pyrrolidine-3-carboxylic acid, C=CCOC(=O)N1CC[C@@](N[*:1])(C(=O)[*:2])C1; MG = Monomer G = RdN, acyclic alkyl-N(Alloc) stapling residue; R8 = C=CCCCCCC[C@@](C)(N)C(=O)O; αMeL = CC(C)C[C@](C)(N)C(=O)O; R5 = C=CCCC[C@@](C)(N)C(=O)O
MEASUREMENT TYPE: FP EC50

BINDER: Ac-A[R8]ILDAHI[MB(4)]R[αMeL]W-NH2 (staple 2-9) [FP0633c]
FP EC50: 0.5 to 5 µM

BINDER: AXILDAHIXRVW (not fully specified; Ac-A-R5-I-L-D-A-H-I-MH-R-V-W-NH2; amino staple R5/MH) [FP0510a]
FP EC50: 0.5 to 5 µM

# ---- query binder ----
Provide only the value of recorded FP EC50 for Ac-PQ[R5]ILD[MG]HVRRVWR-NH2 (staple 3-7; also: amino staple (-N(R')-), from carbamate staple by metathesis then Pd(0) CO2 extrusion, also called FP-0776 (amino staple)) [FP0776a]
0.5 to 5 µM
